Attribution: patent US7449465B2

# test target: GSK3β (Homo sapiens, UniProt P49841)
# Sequence (P49841 whole entry, species assumed): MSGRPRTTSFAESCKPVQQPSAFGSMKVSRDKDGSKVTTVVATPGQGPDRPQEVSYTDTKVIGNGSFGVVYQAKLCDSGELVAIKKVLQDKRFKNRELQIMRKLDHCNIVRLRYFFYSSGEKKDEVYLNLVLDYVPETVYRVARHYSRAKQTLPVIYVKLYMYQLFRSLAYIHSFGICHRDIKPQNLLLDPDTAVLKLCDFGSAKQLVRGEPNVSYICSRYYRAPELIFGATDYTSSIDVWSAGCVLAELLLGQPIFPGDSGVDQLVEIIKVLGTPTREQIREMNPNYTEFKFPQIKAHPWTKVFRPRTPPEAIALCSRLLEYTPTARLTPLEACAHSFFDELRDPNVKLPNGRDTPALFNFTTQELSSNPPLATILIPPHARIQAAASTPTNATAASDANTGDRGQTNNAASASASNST
# assay name: GSK3beta assay (SPA, biotinylated phosphorylated CREB peptide, ATP-P33)
# Assay type: biochemical
# conditions used: ranges of pIC50 (−log IC50 (M)); 1 μM ATP, room temperature, one hour; read-out: GSK3b pIC50 (converted)
IC50 values by entry

As a guide, the following entries are already answered.
Cn1cc(Br)c(-c2cccc(Nc3ncc4nnn(-c5cccc(Br)c5)c4n3)c2)n1 1e-08 to 1e-07 M
COCC(=O)NCc1cccc(-n2nnc3cnc(Nc4ccc(-c5cnco5)cc4)nc32)c1 < 1e-08 M
Cn1nnc(-c2cccc(Nc3ncc4nnn(-c5cccc(F)c5)c4n3)c2)n1 < 1e-08 M
COCc1cccc(-n2nnc3cnc(Nc4ccc(CN5CCN(C)CC5)cc4)nc32)c1 1e-08 to 1e-07 M
Cn1nccc1-c1cccc(Nc2ncc3nnn(-c4cccc(F)c4)c3n2)c1 < 1e-08 M
Fc1cccc(-n2nnc3cnc(Nc4ccc(-n5cncn5)cc4)nc32)c1 < 1e-08 M

# query: IC50 | item `c1ccc(-n2nnc3cnc(Nc4cccc(-c5cnco5)c4)nc32)cc1` | system: GSK3β (Homo sapiens, UniProt P49841)
< 1e-08 M

# query: IC50 | item `COc1ccc(-n2nnc3cnc(Nc4cccc(-c5nccn5C)c4)nc32)cc1F` | system: GSK3β (Homo sapiens, UniProt P49841)
1e-08 to 1e-07 M
